target: muscle-type nicotinic acetylcholine receptors (Homo sapiens, UniProt P02708+P07510+Q07001); construct: endogenous in cells; host or cells: TE671/RD (own knowledge of the cited US 5,597,919); test: cell-based
Sequence (P02708 21-457): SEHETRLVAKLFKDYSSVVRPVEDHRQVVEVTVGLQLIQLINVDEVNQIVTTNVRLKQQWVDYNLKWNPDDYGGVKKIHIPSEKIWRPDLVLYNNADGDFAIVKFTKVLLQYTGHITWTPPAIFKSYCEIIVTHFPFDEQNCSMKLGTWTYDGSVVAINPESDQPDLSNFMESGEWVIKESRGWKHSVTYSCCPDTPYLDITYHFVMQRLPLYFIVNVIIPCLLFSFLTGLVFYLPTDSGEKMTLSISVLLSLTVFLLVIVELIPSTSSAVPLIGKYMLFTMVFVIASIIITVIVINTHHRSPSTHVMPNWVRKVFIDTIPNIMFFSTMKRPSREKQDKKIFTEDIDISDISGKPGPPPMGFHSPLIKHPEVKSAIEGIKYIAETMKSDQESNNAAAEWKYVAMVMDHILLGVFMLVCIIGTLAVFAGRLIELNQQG
Sequence (P11230 24-501 partner): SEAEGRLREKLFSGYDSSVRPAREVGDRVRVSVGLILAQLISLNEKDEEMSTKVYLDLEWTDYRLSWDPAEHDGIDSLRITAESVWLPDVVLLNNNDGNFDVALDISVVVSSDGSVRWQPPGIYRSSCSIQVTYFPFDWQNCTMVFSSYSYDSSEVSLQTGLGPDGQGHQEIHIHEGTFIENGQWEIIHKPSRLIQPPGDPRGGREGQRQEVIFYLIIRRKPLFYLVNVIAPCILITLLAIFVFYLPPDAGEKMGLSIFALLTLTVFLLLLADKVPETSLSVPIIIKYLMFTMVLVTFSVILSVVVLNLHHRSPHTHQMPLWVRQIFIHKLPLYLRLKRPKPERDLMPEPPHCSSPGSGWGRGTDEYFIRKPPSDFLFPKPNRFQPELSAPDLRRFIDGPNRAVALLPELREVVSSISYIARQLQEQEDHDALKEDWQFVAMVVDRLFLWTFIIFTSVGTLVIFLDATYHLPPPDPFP
Sequence (Q07001 22-517): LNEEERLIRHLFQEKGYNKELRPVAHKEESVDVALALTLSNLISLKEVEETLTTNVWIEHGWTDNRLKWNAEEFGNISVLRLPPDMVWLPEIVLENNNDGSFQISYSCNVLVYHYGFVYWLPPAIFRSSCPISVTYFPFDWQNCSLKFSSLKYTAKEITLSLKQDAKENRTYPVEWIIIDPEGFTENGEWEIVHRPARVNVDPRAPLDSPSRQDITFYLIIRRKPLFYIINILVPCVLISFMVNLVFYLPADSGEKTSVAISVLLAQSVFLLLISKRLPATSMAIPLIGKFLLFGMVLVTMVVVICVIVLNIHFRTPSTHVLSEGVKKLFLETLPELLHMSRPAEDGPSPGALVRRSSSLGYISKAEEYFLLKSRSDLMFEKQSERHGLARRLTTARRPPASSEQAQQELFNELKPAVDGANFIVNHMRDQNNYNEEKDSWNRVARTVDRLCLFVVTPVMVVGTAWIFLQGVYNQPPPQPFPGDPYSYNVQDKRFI
Sequence (P07510 23-517): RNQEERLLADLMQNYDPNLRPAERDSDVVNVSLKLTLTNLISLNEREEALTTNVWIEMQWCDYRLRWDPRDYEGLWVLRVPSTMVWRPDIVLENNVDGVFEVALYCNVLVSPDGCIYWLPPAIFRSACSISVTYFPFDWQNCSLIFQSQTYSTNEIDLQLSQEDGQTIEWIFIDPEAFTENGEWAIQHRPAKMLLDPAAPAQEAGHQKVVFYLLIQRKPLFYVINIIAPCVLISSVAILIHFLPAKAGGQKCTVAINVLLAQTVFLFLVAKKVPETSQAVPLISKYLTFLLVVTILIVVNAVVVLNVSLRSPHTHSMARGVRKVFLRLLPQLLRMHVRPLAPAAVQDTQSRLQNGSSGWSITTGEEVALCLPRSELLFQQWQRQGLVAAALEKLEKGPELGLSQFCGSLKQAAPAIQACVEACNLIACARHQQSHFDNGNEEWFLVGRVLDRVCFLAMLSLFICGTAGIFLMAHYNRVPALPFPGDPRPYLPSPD
pEC50: −log10 of the molar value.
// reported pEC50 for each item listed
Reported Endpoint: pEC50

{"columns": ["Molecule", "Numeric Value"],
 "data": [
  ["CCOc1cncc(C2CC3CCN2CC3)c1.Cl.Cl (stereo not shown) [Sample No. 7, dihydrochloride]", 6.15],
  ["c1cncc([C@H]2C[C@@H]3CCN2C3)c1 (relative stereo)", 7.00],
  ["c1cncc(C2C3CCN2CC3)c1 (stereo not shown) [Sample No. 5, 1-aza-7-(3-pyridyl)bicyclo[2.2.1]heptane]", 6.52],
  ["CN1CCC[C@H]1c1cccnc1 [Sample No. C-1, (S)-(−)-nicotine, reference compound]", 4.22]
]}
